Provide the reported soluble fraction (log2) of each item.
# assay-text: soluble fraction after stress (log2 fold change); higher = more stays soluble; pooled small domains, quantitative proteomics;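 also: 20 min heating vs room temperature control held 20 min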
# condition-parameters: stress: 75 degC
No unit in the answer, please; the number alone is enough.

Requested field: soluble fraction (log2). Item: HMPIEQVEVPNLTNMTREEAESTLTSLNLKAQVHEEANEADEGKVFKQGTNTGEMVDEGSTIEIWVS
-0.549

Now the sequence HMSGMNSDHRVNGNIHTFLIQHDLGTKWSVFTEQLLKQVFRSFLPDKELNFQTTDSTVILKVSLGSDFNEH
-0.0399

Now the sequence HMNLGVIYSLKAEVRSEPNTFSTRLFEVHEGLKVSINQLENDWVEIELLDGKTGWISNDQIRLI
-2.61

Now the sequence HMAERLQARIDAPGVRLDKALAETFPTLSRARLQALLADGAVTRDGQTVSNGSAKAQPGLYVVALPPVA
0.385

Now the sequence HMGSPKLVIKNGQVDYQVLKKEKLDLLELTSLLRGQNTFSIREIEYAIIEPNGVITVIKKPEYQSVVKGDL
-0.43

Now the sequence HMSDDAVVRMRVPEDALGLSLRETDFRQRFGVYVLAIETRDGKLLAPPDPQRPLGKDDVLVVIQKR
-0.847

Now the sequence HMRQGHLDLLRQIHALPPSTREVVYLRAFGGLSFREIGDVLGRTETWARVTFYRGKEALRKG
-0.106

Now the sequence HMIAVLEEGSRFRAINDISGKPFGPEMIIKNGQVIAAGKKILTKPKKLIGKKEGTKFNISGKEYVIKDI
-0.747

---

# assay-text: soluble fraction after stress (log2 fold change); higher = more stays soluble; pooled small domains, quantitative proteomics
# condition-parameters: stress: 75 degC
quantity: soluble fraction (log2)
No unit in the answer, please; the number alone is enough.

Requested field: soluble fraction (log2). Item: HMWTPLVVAVLIGGTHRFGELRAAVGGITPKVLTETLRSMERDGLVVREQTPGVPPRVDYALTPLGA
-0.493

Now the sequence HMNTYEIIGGDNRARGPVTGEELSQWIREGRASGHTMARVSDGEHWQPLGSFPEFVGPLQGLPW
0.0698

Now the sequence HMHYNMNYLENLTKTELFDLAKNKFGLTYAEMERHLSIPEGGARYAIKAEHSKYGSDIKKYLVEFLLE
-1.06

Now the sequence HMLKHSKQRDAIEQFLATRYDHPTAETVYMNLREEYPKLSLATVYRNLSLLAELGNIQKIPTGNGPDRFDG
-0.343

---

# assay-text: soluble fraction after stress (log2 fold change); higher = more stays soluble; pooled small domains, quantitative proteomics
# condition-parameters: stress: 75 degC
Provide the reported soluble fraction (log2) of each item.
No unit in the answer, please; the number alone is enough.

Requested field: soluble fraction (log2). Item: HMGISSESIKTFIREIVENEDPKAPLSDQTMVELLAERGIDISRRTVAKYRDEMNLPSSSKRKR
0.87

Now the sequence HMVKLDDLTGQDKATAEATITNSGLKYSEQQEFSDEVEAGKVIRTDPGAGTSSLKAGDTVTVYVSRGPEN
0.215

Now the sequence HMGSVDMVYGDHKINSEHMDLSFKNQTAVLYDKVNYKSSLSMLSADKILVNFLNKYTKIEMNDENNNILIQ
0.176

Now the sequence HMSGRSVSYSEFMSRVEAGQVSSVTLDGERVEVTGSDGSRYVTIAPSDATLTDKLVAKGVEVRADP
0.462

Now the sequence HMSIQMPDLSITPVTDAKKKIESLQLQYKEVGEYNDSVIAGYVIRTEPASGSYLNEDEEVIIYVSKG
-0.776

Now the sequence HMTTVKDRVYEILKREIVLGKLKPGEPINIAVLSTKLNISSAPLREALNMLSRDGLVTLNPRKHAAVSE
-1.31

Now the sequence HMTYAQQIGARIAFLRRLKGLTLAELAERVNKHKSTISKYESGQIIIDIESLKEVADALGVDVAQIVE
-1.26

Now the sequence HMNPNSIDEKLKLLSNREKEVAILVLKKLSYFEISEQLNITIRTVKAHTKNIYEKFNVSNRLAFLLLFN
-0.00667

Now the sequence HMSALAEELIKKNQAMILTIKPRDTIWGIANRFQSPPSEKFINQIIELNQVDPYRLRIGQDLLIPLN
-0.984

Now the sequence HMTQEMPAEVKKKADAFNNAMDEENYTEAKAILAELEQNTAPSYPLLLQMQTRYAFETASWE
0.00338

Now the sequence HMLSVTLTVLPQQAGERLDAFAAAESTLSRSAAAKLIEDGQITVNGARAAKNYRLRAGDVIEIDEPEPI
-0.0471

Now the sequence HMKSIETVAELVAELKKLNPNAKISNIDGTYTLEEDINTITLPKDFKYDNNLGINNKIDDFTPYISLDVKA
0.662

Now the sequence HMYMTTADADMWKYVNTGRYNNDIQLMEEYKNRSMDSFEVITPEQQRKYNKAAMNLNSYYAWADPSYKPNP
-0.483

Now the sequence HMSDRESYGRYRNVSLTLSEYESLKNEYPLYADKYIERLSEYMETAGKHYNNHYATILSWLSKDIK
-0.201

Now the sequence HMPIDNTLLSRITSLGVSTTEAEKLISKHGEEALKANLEVVEERLSKPNLPLLDSPAAYLKTALKNG
0.415

Now the sequence HMGAAIEYGDRGNTVLQAQRLLIARGYMAGSADGIYGRQMEQAVKRFQKEQGLPESGVVDRRTLQVLIRSR
-1.63

Now the sequence HMDYKAELDNIIRDHLDMEGPLLPVLHAVMARFSYIPKDAIPIIARKLNLSSAEVSGVISFYHDFKKEK
-1.81

Now the sequence HMDKSLDFASIKSVEIATGRKFGWHALKKWSKSNSSEIKTIPDPNFGEVKTYHKDAWLAVYNINLSPILD
-0.376

Now the sequence HMAEGPYSGKKVEKYPGGMEKRETMYSEGKLTRVTEFHQSGQKKMEVKVDANGQWKRLYWDNNGNPT
-0.0401

Now the sequence HMRPPLEWGTHGEITTRTVASGYVRASARVRLWDGELQRMTATASTASDARASLQHRIAERLRFSEL
-1.45

Now the sequence HMESILDDFPGLGAVRRAALLEHFGDIDRLRAASAVEITEVDGFGDVLARELHDFLHRPKPDA
-0.515

Now the sequence HMSFGWETLEGKEGVTDTDLHPSGWVKVGDEKIFVVSQGEFLGKGTDIVVVSVDGNRVVVKELI
-0.998

Now the sequence HMDTRQFWEQWVADEIRTFEHKDRKQLFGWFEGNKPKLGQMKKLGYGDLLTKVQTSWDEIYQQKE
0.0857

Now the sequence HMVDISLSDRELEVLRLLAMGLSNADISRRLYLSEGTIRNYMSGIFSKLNVSDRTQAVVIALREGLVNL
-1.56

Now the sequence HMNMLGEQVRNIRKSRGFTLKALAEQTGLSIGYISQIERNLTDPSLSTLRKISAALDVPTYLFMG
-2.13

Now the sequence HMRLDSELVSARLHRFMGTNRKPDGEIVEKIAAILEGHPIETLDAFLQSLNGRKIKSYGFFPTVLRREIAN
-0.319

Now the sequence HMTNEPRLTNMGFNKMLIENYKMILEYQDFFIRISTQIGIININGFDLKLGEMTADEVLVTGKIESIDL
0.429

Now the sequence HMKLFGTPGSPFARKVRIVLEEKRIPHEYIIERGSAPGSRVPQYNPLGKVPTLVLDDGRGLYDSPVIVEYL
-0.531

Now the sequence HMTGIQLNDRERAILQHLSDGLTTKAIAERIFLREDTVKWYRKNLLARFEQPIVAALVKWAVLEGLV
0.0483

Now the sequence HMGKSPLDALSAREKEVLTYITRGVSINDIAAVLYLSPKTVSTHKTNLMQKLGIENNADLILFGVNHGLND
-1.51

Now the sequence HMQRYFINEPVPEDQRLVLPKDIAHHLVDVLRAEQNDELEVALNDQKVYLARLISLNPATVELQSDLG
0.465

Now the sequence HMKTGHLPVTVIIDGRIISDNLYKTGLSNNWLADQLRKNSIKSSEDVFFAYLNPERKFIYQLRSNS
-1.49

Now the sequence HMGDTVSGTMLNLKPGVRVVHQIFGPGRVEETTGASLAEFRVTVRFEQKGLKTLLLQYAALQVINSEN
-1.73

---

# assay-text: soluble fraction after stress (log2 fold change); higher = more stays soluble; pooled small domains, quantitative proteomics
# condition-parameters: stress: 75 degC
Provide the reported soluble fraction (log2) of each item.
No unit in the answer, please; the number alone is enough.

Requested field: soluble fraction (log2). Item: HMAQTTKWREIHKVKRKETIFGIARDNGLTVDELIEANPEMTKPGYELKKGDFIYIPFPSKNIDTNAGTQT
0.498

Now the sequence HMSTEDYLKTIYILESQQGVHGSDVARMLKVTRPTVSIALKALEQEGYVWMDESRLVHLTDSGLQIAKDT
-0.914

Now the sequence HMAVKLELYRVFKEVAETGNISAAAKNLYISQSAVSQSIKQLETALQARLFARSPRGVTLTGEGQMLYQYV
-1.5

Now the sequence HMADTFVMPDLVYRRYEPVRGYFERGGFHMGAVKFEPYEGISDGTILRQNPLPGHPLRRRDVISLVVAAS
-2.4

Now the sequence HMNPEDDLLKAIIMKYFSNAQVQVDKNVIEYLLKRVDRDYQNLYNILEKINILSLQRKSKITTHLIRDIM
-0.414

Now the sequence HMQKYSTIIGVIELRQSGIGYRTTKKRYNIGNSTVTLIMNRFHELGLSLEELKAMPPKKVEEAFYPPE
-3.22

Now the sequence HMISAQEQALRNLKLSNGMTWKALAKALGITERSILSYVAAPGTKGYREMPAEVWHKLENISGH
-0.0432

Now the sequence HMVSFAEQASDWLAHFDRLGDVGPDTTLTDLTARDAEFSAWVNEGIHHRVAFLETLAAWHRTER
-0.627

The origin of these recorded values is the domain aggregation screens of Martell et al. (2025).
